tested on: Lgr5 (MarsCy1-Lgr5-EGFP, U2OS); assay: cell-surface Lgr5 expression (SCi1 fluorescence, background-subtracted) relative to WT DMSO (fold of DMSO control); higher = more Lgr5 at the plasma membrane, active = hit call of the paper; settings: U2OS MarsCy1-Lgr5-EGFP stable; treatment time: overnight; 16 µM; library: Johns Hopkins Clinical Compound Library
Where a name gives a salt, the structure may show the parent alone. Hit rate of the full screen: of about 1,200 compounds, about 50 (4%) showed activity. Cut-off read from the data, not from the text of the source: all actives reach 1.3 or more but so do some inactives. This is one part of a sample in which actives are shown more often than they occur.
Your response should consist of one outcome taken from 1 (yes) for active, 0 (no) for inactive

INSERT INTO results (compound, group) VALUES
  ('CCN(CC)C(=S)S [Ditiocarb (Diethyldithiocarbamic acid sodium, thiocarb)]', '0 (no)'),
  ('CC(=O)OCC(=O)[C@@]12OC(C)(C)O[C@@H]1C[C@H]1[C@@H]3CCC4=CC(=O)C=C[C@]4(C)[C@@]3(F)[C@@H](O)C[C@@]12C [Triamcinolone acetonide acetate]', '0 (no)'),
  ('CCCCOc1cc(C(=O)OCCN(CC)CC)ccc1N [Benoxinate]', '0 (no)'),
  ('CCCC(=O)O[C@]1(C(=O)CCl)[C@H](C)C[C@@H]2[C@@H]3CCC4=CC(=O)C=C[C@]4(C)[C@]3(F)C(=O)C[C@@]21C [Clobetasone butyrate]', '0 (no)'),
  ('CC(=O)O[C@]1(C(C)=O)CC[C@H]2[C@@H]3C[C@H](C)C4=CC(=O)CC[C@]4(C)[C@H]3CC[C@@]21C [Medroxyprogesterone acetate]', '0 (no)'),
  ('CC(=O)OCC(=O)[C@@]1(OC(C)=O)[C@@H](C)C[C@H]2[C@@H]3C[C@H](F)C4=CC(=O)C=C[C@]4(C)[C@@]3(F)[C@@H](O)C[C@@]21C [Diflorasone diacetate]', '1 (yes)'),
  ('CC1=CC(=C(c2ccc(N)cc2)c2ccc(N)cc2)C=CC1=N [Basic fuchsin hydrochloride]', '0 (no)'),
  ('CC1CCC(NC(=O)N(CCCl)N=O)CC1 (stereo not given)', '0 (no)');

--- query ---
Inquiry: Record lookup: outcome of this test for CC(=O)O[C@]1(C(C)=O)CC[C@H]2[C@@H]3C[C@H](C)C4=CC(=O)C=C[C@]4(C)[C@@]3(F)[C@@H](O)C[C@@]21C [Fluorometholone acetate] ?
Reply text: 1 (yes)

* * *

tested on: Lgr5 (MarsCy1-Lgr5-EGFP, U2OS); assay: cell-surface Lgr5 expression (SCi1 fluorescence, background-subtracted) relative to WT DMSO (fold of DMSO control); higher = more Lgr5 at the plasma membrane, active = hit call of the paper; conditions: U2OS MarsCy1-Lgr5-EGFP stable; treatment time: overnight; 16 µM; library: Johns Hopkins Clinical Compound Library
Where a name gives a salt, the structure may show the parent alone. About 50 (4%) of roughly 1,200 compounds showed activity. Cut-off read from the data, not from the text of the source: all actives reach 1.3 or more but so do some inactives. This is one part of a sample in which actives are shown more often than they occur.
Your response should consist of one outcome taken from active, inactive

Examples from the recorded data:
INSERT INTO results (compound, group) VALUES
  ('O=C(O)c1cc(O)c(O)c(O)c1', 'inactive'),
  ('CNCCCC12CCC(c3ccccc31)c1ccccc12', 'active'),
  ('CCN(CC)CC(=O)Nc1c(C)cccc1C', 'inactive');

Inquiry: Record lookup: outcome of this test for Cc1ncc(CO)c(CN)c1O [Pyridoxamine dihydrochloride] ?
Reply text: inactive

Inquiry: Record lookup: outcome of this test for COc1cc(C2Oc3cc([C@H]4Oc5cc(O)cc(O)c5C(=O)[C@@H]4O)ccc3OC2CO)ccc1O (stereo not given in full) [Silibinin] ?
Reply text: inactive

Inquiry: Record lookup: outcome of this test for Cc1cc(/C=C/c2ccc3cc(N(C)C)ccc3[n+]2C)c(C)n1-c1ccccc1 [Pyrvinium pamoate] ?
Reply text: inactive

Inquiry: Record lookup: outcome of this test for COc1cc(C2Oc3cc([C@H]4Oc5cc(O)cc(O)c5C(=O)[C@@H]4O)ccc3OC2CO)ccc1O (stereo not given in full) [Silibinin (Silybin)] ?
Reply text: inactive

Inquiry: Record lookup: outcome of this test for CCCCC(C)(O)C/C=C/[C@H]1[C@H](O)CC(=O)[C@@H]1CCCCCCC(=O)OC (mixture of isomers) ?
Reply text: inactive

Inquiry: Record lookup: outcome of this test for "C[C@@H]1C/C=C/C=C/C=C/C=C/[C@H](O[C@@H]2O[C@H](C)[C@@H](O)[C@H](N)[C@@H]2O)C[C@@H]2O[C@](O)(C[C@@H](O)C[C@H]3O[C@@H]3/C=C/C(=O)O1)C[C@H](O)[C@H]2C(=O)O" ?
Reply text: inactive

Inquiry: Record lookup: outcome of this test for "O=C(O)c1cc(-c2ccccc2)nc2ccccc12" ?
Reply text: active

Inquiry: Record lookup: outcome of this test for Cc1ncc(CO)c(CN)c1O [Pyridoxamine, Dihydrochloride] ?
Reply text: inactive

Inquiry: Record lookup: outcome of this test for "CNCCCC1c2ccccc2C=Cc2ccccc21" ?
Reply text: inactive

* * *

tested on: Lgr5 (MarsCy1-Lgr5-EGFP, U2OS); assay: cell-surface Lgr5 expression (SCi1 fluorescence, background-subtracted) relative to WT DMSO (fold of DMSO control); higher = more Lgr5 at the plasma membrane, active = hit call of the paper; conditions: U2OS MarsCy1-Lgr5-EGFP stable; treatment time: overnight; 16 µM; library: Johns Hopkins Clinical Compound Library
Where a name gives a salt, the structure may show the parent alone. The campaign covered roughly 1,200 compounds. About 50 (4%) showed activity. Only a selection was taken, and actives are over-represented in it overall.
Assign class 1 whenever cell-surface Lgr5 expression does not fall below 1; assign class 0 whenever it does.

INSERT INTO results (compound, targetundertest, group) VALUES
  ('CO[C@@H]1[C@@H](O[C@@H]2O[C@H](C)[C@@H](O[C@H]3C[C@@](C)(O)[C@@H](OC(=O)CC(C)C)[C@H](C)O3)[C@H](N(C)C)[C@H]2O)[C@@H](CC=O)C[C@@H](C)[C@@H](O)/C=C/C=C/C[C@@H](C)OC(=O)C[C@H]1OC(C)=O', 'Lgr5 (MarsCy1-Lgr5-EGFP, U2OS)', 'class 1');

Inquiry: Entry COc1ccc2cc3[n+](cc2c1OC)CCc1cc2c(cc1-3)OCO2 [Berberine bisulfate] : is its cell-surface Lgr5 expression no less than 1?
Reply text: class 1

Inquiry: Entry CN(C)CCOC(C)(c1ccccc1)c1ccc(Cl)cc1 (stereo unspecified) [Chlorphenoxamine hydrochloride] : is its cell-surface Lgr5 expression no less than 1?
Reply text: class 1

* * *

Kindly supply the reported cell-surface Lgr5 expression values for the records listed here.
system: Lgr5 (MarsCy1-Lgr5-EGFP, U2OS); assay: cell-surface Lgr5 expression (SCi1 fluorescence, background-subtracted) relative to WT DMSO (fold of DMSO control); higher = more Lgr5 at the plasma membrane, active = hit call of the paper; settings: U2OS MarsCy1-Lgr5-EGFP stable; treatment time: overnight; 16 µM; library: Johns Hopkins Clinical Compound Library
Structures can show the parent of a compound that is named as a salt. The whole screen tested about 1,200 compounds, of which about 50 (4%) showed activity. What follows is part of a selection rich in actives, with near analogues and random picks from the rest.
Answers are plain numbers.

The following molecules have reported results that may help.
INSERT INTO results (molecule, number) VALUES
  ('CN(CCO)CC(O)Cn1cnc2c1c(=O)n(C)c(=O)n2C (stereo not drawn) [Xanthinol niacinate (Xanthinol Nicotinate)]', 1.05),
  ('CCc1cc(Cl)c(OC)c(C(=O)NC[C@@H]2CCCN2CC)c1O [Eticlopride hydrochloride (S)]', 1.52),
  ('COC(=O)Nc1nc2cc([S+]([O-])c3ccccc3)ccc2[nH]1 (stereo not drawn) [Oxfendazole]', 1.18),
  ('O=NN(CCCl)C(=O)NC1CCCCC1 [Lomustine]', 1.37),
  ('O=[N+]([O-])c1ccc(O)cc1 [4-Nitrophenol]', 1.17),
  ('CCN1CCCC1CNC(=O)c1cc(S(N)(=O)=O)ccc1OC (racemic) [Sulpiride (+/-)-]', 1.07),
  ('NS(=O)(=O)c1cc2c(cc1C(F)(F)F)NC(Cc1ccccc1)NS2(=O)=O (stereo not drawn) [Bendroflumethiazide]', 1.02);

Moving on to another molecule below.
Inquiry: Quick one: cell-surface Lgr5 expression of C[C@@H](O[C@H]1OCCN(Cc2n[nH]c(=O)[nH]2)[C@H]1c1ccc(F)cc1)c1cc(C(F)(F)F)cc(C(F)(F)F)c1 [Aprepitant] ?
Reply text: 1.01

* * *

tested on: Lgr5 (MarsCy1-Lgr5-EGFP, U2OS); assay: cell-surface Lgr5 expression (SCi1 fluorescence, background-subtracted) relative to WT DMSO (fold of DMSO control); higher = more Lgr5 at the plasma membrane, active = hit call of the paper; settings: U2OS MarsCy1-Lgr5-EGFP stable; treatment time: overnight; 16 µM; library: Johns Hopkins Clinical Compound Library
About 50 (4%) of roughly 1,200 compounds showed activity. Rule as the data show it: all actives reach 1.3 or more but so do some inactives. Shown is part of a subset that was picked to be rich in actives.
Your response should consist of one outcome taken from active, inactive

Examples from the recorded data:
INSERT INTO measurements (compound, group) VALUES
  ('COc1ccnc(C[S+]([O-])c2nc3cc(OC(F)F)ccc3[nH]2)c1OC (stereo not drawn) [Pantoprazole]', 'inactive'),
  ('O=C(O)c1ccccc1I [2-Iodobenzoic acid]', 'inactive'),
  ('Nc1ncn([C@H]2C[C@H](O)[C@@H](CO)O2)c(=O)n1 [Decitabine (5-aza-2-deoxycytidine)]', 'active'),
  ('Nc1c2ccccc2nc2ccccc12 [Aminacrine (9-Aminoacridine)]', 'inactive'),
  ('Nc1nc(Cl)nc2c1ncn2[C@H]1C[C@H](O)[C@@H](CO)O1 [Cladribine (2-chloro,2-deoxyadenosine)]', 'inactive');

Inquiry: Record lookup: outcome of this test for CC(=O)[C@H]1CC[C@H]2[C@@H]3C[C@H](C)C4=CC(=O)CC[C@]4(C)[C@H]3[C@@H](O)C[C@]12C [Medrysone (6-alpha-Methyl-11-beta-Hydroxyprogesterone)] ?
Reply text: inactive

Inquiry: Record lookup: outcome of this test for Nc1nc(O)c2ncn(CCC(CO)CO)c2n1 [Penciclovir] ?
Reply text: inactive

Inquiry: Record lookup: outcome of this test for O=c1[nH]c(=O)n([C@H]2C[C@H](O)[C@@H](CO)O2)cc1F [Floxuridine (5-fluorodeoxyuridine)] ?
Reply text: inactive
